Biological target: HCV polymerase 1A (Δ21 NS5B, H77) (Hepatitis C virus genotype 1a, UniProt P27958)
Construct: 20 to 50 nM Δ21 NS5B
Sequence (P27958 2421-2990, stated change not applied): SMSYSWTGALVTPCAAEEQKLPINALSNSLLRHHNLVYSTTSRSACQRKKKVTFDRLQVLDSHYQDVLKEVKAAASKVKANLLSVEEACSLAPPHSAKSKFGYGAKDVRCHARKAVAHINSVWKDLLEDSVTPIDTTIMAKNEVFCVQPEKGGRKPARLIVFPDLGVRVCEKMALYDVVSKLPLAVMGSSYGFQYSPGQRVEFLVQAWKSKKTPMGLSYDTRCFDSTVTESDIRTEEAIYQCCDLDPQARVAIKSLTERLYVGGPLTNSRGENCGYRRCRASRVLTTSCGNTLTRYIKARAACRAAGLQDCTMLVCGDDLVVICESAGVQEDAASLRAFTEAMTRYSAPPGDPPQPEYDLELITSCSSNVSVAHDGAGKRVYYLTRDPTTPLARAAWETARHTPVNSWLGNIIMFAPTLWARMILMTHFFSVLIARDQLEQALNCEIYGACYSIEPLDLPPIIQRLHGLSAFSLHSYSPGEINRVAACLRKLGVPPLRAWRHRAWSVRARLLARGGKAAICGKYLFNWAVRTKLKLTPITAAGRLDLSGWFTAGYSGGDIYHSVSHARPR
Assay: biochemical
Details: IC50 1a
Measured Endpoint: IC50

Field: example entries. Status: answers known.
Prompt: I am curious: what IC50 value has been reported for COc1ccc(-c2cc(-n3ccc(=O)[nH]c3=O)cc(C(C)(C)C)c2OC)cc1/C=N/NS(C)(=O)=O [IB-L0-1.6] ?
Completion: 100 to 1000 nM

Prompt: GET /values?readout=IC50&item= CCOC(=O)CC(=O)c1ccc(NC(=O)c2cc(N3CCC(=O)NC3=O)cc(C(C)(C)C)c2OC)cc1 [IA-L3-1.43]
Completion: > 1000 nM

Prompt: State the recorded IC50 for this entry: COc1c(-c2ccc3c(c2)CC[C@@H]3C(C)(C)NS(C)(=O)=O)cc(-n2ccc(=O)[nH]c2=O)cc1C(C)(C)C (single isomer, unassigned) [IB-L0-2.22]
Completion: 10 to 100 nM

Return reported IC50 values for all items listed beneath this line.
1. CN(c1ccc(NC(=O)c2cc(N3CCC(=O)NC3=O)cc(C(C)(C)C)c2O)cc1)S(C)(=O)=O [IA-L3-1.4]
2. COc1c(C(=O)N(C)c2ccc(NS(C)(=O)=O)cc2)cc(N2CCC(=O)NC2=O)cc1C(C)(C)C [IA-L3-1.27]
3. COc1c(-c2ncc(-c3cccc(NS(C)(=O)=O)c3)o2)cc(N2CCC(=O)NC2=O)cc1C(C)(C)C [IA-L0-1.9]
4. COc1c(C(=O)Nc2ccccc2S(N)(=O)=O)cc(N2CCC(=O)NC2=O)cc1C(C)(C)C [IA-L3-1.80]

Completion:
1: 100 to 1000 nM; 2: 100 to 1000 nM; 3: 10 to 100 nM; 4: > 1000 nM

====

Test system: genotype 1a-H77 subgenomic replicon cell line
Assay: microbe, parasite or virus in culture
Format: cell-based, HCV
Details: Hepatitis C virus, read-out: EC50 1a
pEC50: −log10 of the molar value.
Measured Endpoint: pEC50

Known pEC50 results, listed for orientation:
Prompt: Which measured pEC50 value corresponds to `COc1c(-c2ccc3c(c2)CC=C3C(C)(C)NS(C)(=O)=O)cc(-n2ccc(=O)[nH]c2=O)cc1C(C)(C)C` ?
Completion: 6.00 to 7.00

Prompt: Would you kindly share the measured pEC50 for `COc1c(C#Cc2cnc(NS(C)(=O)=O)cn2)cc(-n2ccc(=O)[nH]c2=O)cc1C(C)(C)C` ?
Completion: < 6.00

Prompt: Which pEC50 value is on record for `CC(C)CS(=O)(=O)Nc1ccc(NC(=O)c2cc(N3CCC(=O)NC3=O)cc(C(C)(C)C)c2O)cc1` ?
Completion: < 6.00

Query molecule follows.
Prompt: So what's the measured pEC50 for this one? `CC(C)(C)c1cc(N2CCC(=O)NC2=O)cc(C(=O)Nc2ccc(OCC#N)cc2)c1O`
Completion: < 6.00

====

Tested on: genotype 1a-H77 subgenomic replicon cell line
Assay: microbe, parasite or virus in culture
Format: cell-based, HCV
Settings: Hepatitis C virus, read-out: EC50 1a
Kindly state EC50 for each of the entries shown.

# example entries with known answers
Prompt: Param item = `CC(C)(C)c1cc(C#Cc2ccc(NS(C)(=O)=O)cc2Cl)cc(N2CCC(=O)NC2=O)c1` ; retrieve measured EC50.
Completion: 10 to 100 nM

Prompt: What does the data say about its EC50? Entry: `COc1c(C(=O)Nc2ccc(OCC(N)=O)cc2)cc(N2CCC(=O)NC2=O)cc1C(C)(C)C`
Completion: > 1000 nM

Prompt: Query (compound): `COc1c(C#Cc2ccc(NS(C)(=O)=O)cn2)cc(N2CCC(=O)NC2=O)cc1C(C)(C)C` ; field requested: EC50
Completion: 100 to 1000 nM

Prompt: // lookup EC50 for `CC(C)(C)c1cc(-n2ccc(=O)[nH]c2=O)cc(/C=C/c2ccc(NS(C)(=O)=O)cc2)c1Cl`
Completion: 10 to 100 nM

Prompt: I am curious: what EC50 value has been reported for `CCC(C)(C)c1cc(-n2ccc(=O)[nH]c2=O)cc(-c2ccc3cc(NS(C)(=O)=O)ccc3c2)c1OC` ?
Completion: 10 to 100 nM

Please go through the list and note EC50 for each compound.
1. COc1c(/C=C/c2ccc(NS(C)(=O)=O)cc2)cc(-n2ccc(=O)[nH]c2=O)cc1C(C)(C)CO
2. COc1c(/C=C/c2ccc(NS(C)(=O)=O)cc2)cc(-n2ccc(=O)[nH]c2=O)cc1S(C)(=O)=O
3. CN(C(=O)c1cc(N2CCC(=O)NC2=O)cc(C(C)(C)C)c1O)c1ccc(NS(C)(=O)=O)cc1

Completion:
["10 to 100 nM", "> 1000 nM", "> 1000 nM"]

====

Tested on: genotype 1a-H77 subgenomic replicon cell line
Assay: microbe, parasite or virus in culture
Type: cell-based, HCV
Conditions: Hepatitis C virus, read-out: EC50 1a
pEC50: −log10 of the molar value.
Measured Endpoint: pEC50

Prompt: Item `COc1c(C#Cc2ccc(NS(C)(=O)=O)c3ccccc23)cc(-n2ccc(=O)[nH]c2=O)cc1C(C)(C)C` has what recorded pEC50?
Completion: 6.00 to 7.00

# batch: return pEC50 for each of the 3 compounds below
1. COc1c(/C=C/c2ccc(NS(C)(=O)=O)cc2C(=O)N2CCC2)cc(-n2ccc(=O)[nH]c2=O)cc1C(C)(C)C
2. COc1c(C#Cc2ccc(NS(C)(=O)=O)c(C(F)(F)F)c2)cc(N2CCC(=O)NC2=O)cc1C(C)(C)C
3. CNS(=O)(=O)Cc1ccc(NC(=O)c2cc(N3CCC(=O)NC3=O)cc(C(C)(C)C)c2O)cc1

Completion:
7.00 to 8.00
< 6.00
< 6.00

====

Molecular target: HCV polymerase 1B (Δ21 NS5B, BK) (Hepatitis C virus genotype 1b, UniProt P26663)
Construct: 20 to 50 nM Δ21 NS5B
Sequence (P26663 2420-2989, stated change not applied): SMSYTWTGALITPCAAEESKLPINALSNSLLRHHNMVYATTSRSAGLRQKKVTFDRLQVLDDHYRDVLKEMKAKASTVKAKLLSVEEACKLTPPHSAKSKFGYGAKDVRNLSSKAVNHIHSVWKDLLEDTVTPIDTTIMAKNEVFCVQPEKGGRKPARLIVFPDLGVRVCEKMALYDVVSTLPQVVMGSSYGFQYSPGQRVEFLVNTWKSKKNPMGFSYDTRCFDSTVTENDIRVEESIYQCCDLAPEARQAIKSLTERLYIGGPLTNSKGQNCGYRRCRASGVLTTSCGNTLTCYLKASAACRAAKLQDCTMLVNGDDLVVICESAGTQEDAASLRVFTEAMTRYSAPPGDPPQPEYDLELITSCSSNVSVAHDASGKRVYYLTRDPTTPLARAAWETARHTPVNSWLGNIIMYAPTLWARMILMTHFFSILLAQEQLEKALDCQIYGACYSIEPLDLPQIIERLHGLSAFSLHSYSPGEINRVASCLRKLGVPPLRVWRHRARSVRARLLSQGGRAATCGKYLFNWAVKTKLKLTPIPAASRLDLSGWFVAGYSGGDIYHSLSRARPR
Assay: biochemical
pIC50: −log10 of the molar value.
Give pIC50 for every item shown.

Field: pIC50. Fill in for each record below.
1. COc1cc(NS(C)(=O)=O)ccc1C#Cc1cc(N2CCC(=O)NC2=O)cc(C(C)(C)C)c1OC
2. CCOC(=O)N(c1ccc(NC(=O)c2cc(N3CCC(=O)NC3=O)cc(C(C)(C)C)c2OC)cc1)S(C)(=O)=O
3. COc1c(-c2ccc(/C=N/NS(C)(=O)=O)cc2)cc(N2CCC(=O)NC2=O)cc1C(C)(C)C
4. COC(=O)C1CCN(Cc2cc(N3CCC(=O)NC3=O)cc(C(C)(C)C)c2O)CC1
5. COc1c(-c2ccc(/C=N/NS(C)(=O)=O)c(F)c2F)cc(N2CCC(=O)NC2=O)cc1C(C)(C)C
6. CC(C)(C)OC(=O)NC1CCN(Cc2cc(N3CCC(=O)NC3=O)cc(C(C)(C)C)c2O)CC1

Completion:
7.00 to 8.00
< 6.00
7.00 to 8.00
< 6.00
7.00 to 8.00
< 6.00

Report pIC50 for each item below.
1. CC1CN(Cc2cc(N3CCC(=O)NC3=O)cc(C(C)(C)C)c2O)CC(C)O1 (stereo not drawn) [IA-L5-1-1.13, 2,2,2-trifluoroacetate]
2. CC(C)(C)c1cc(-n2ccc(=O)[nH]c2=O)cc(-c2ccc3c(CNS(C)(=O)=O)csc3c2)c1Cl
3. COc1c(C(=O)Nc2ccc(N(COC(=O)C(C)(C)C)S(C)(=O)=O)cc2)cc(N2CCC(=O)NC2=O)cc1C(C)(C)C
4. COc1c(C(=O)Cc2ccc(NS(C)(=O)=O)cc2)cc(N2CCC(=O)NC2=O)cc1C(C)(C)C
5. COc1c(-c2ccc(/C(C)=N/NS(C)(=O)=O)cc2)cc(N2CCC(=O)NC2=O)cc1C(C)(C)C

Completion:
1. < 6.00
2. 7.00 to 8.00
3. < 6.00
4. 7.00 to 8.00
5. 7.00 to 8.00

For each of the compounds below, state pIC50.
1. Cc1cc(=O)[nH]c(=O)n1-c1cc(C(=O)Nc2ccc(NS(C)(=O)=O)cc2)c(O)c(C(C)(C)C)c1
2. COc1c(C(=O)Nc2ccc(O)cc2)cc(N2CCC(=O)NC2=O)cc1C(C)(C)C

Completion:
1. 7.00 to 8.00
2. 6.00 to 7.00

# map each compound to its pIC50
1. COc1c(C#Cc2cc(F)c(NS(C)(=O)=O)cc2C)cc(-n2ccc(=O)[nH]c2=O)cc1C(C)(C)C
2. COc1cc(NS(C)(=O)=O)ccc1C(=O)Nc1cc(N2CCC(=O)NC2=O)cc(C(C)(C)C)c1OC

Completion:
1: 7.00 to 8.00; 2: 7.00 to 8.00
